Data origin, for the record: patent US20220009914A1

Tgt: E. coli GroEL/ES (Escherichia coli, UniProt P0A6F5)
Construct: made in house; host or cells: GroEL in NEB 5-alpha E. coli; GroES in E. coli BL21 (DE3)
Sequence (P0A6F5 2-548): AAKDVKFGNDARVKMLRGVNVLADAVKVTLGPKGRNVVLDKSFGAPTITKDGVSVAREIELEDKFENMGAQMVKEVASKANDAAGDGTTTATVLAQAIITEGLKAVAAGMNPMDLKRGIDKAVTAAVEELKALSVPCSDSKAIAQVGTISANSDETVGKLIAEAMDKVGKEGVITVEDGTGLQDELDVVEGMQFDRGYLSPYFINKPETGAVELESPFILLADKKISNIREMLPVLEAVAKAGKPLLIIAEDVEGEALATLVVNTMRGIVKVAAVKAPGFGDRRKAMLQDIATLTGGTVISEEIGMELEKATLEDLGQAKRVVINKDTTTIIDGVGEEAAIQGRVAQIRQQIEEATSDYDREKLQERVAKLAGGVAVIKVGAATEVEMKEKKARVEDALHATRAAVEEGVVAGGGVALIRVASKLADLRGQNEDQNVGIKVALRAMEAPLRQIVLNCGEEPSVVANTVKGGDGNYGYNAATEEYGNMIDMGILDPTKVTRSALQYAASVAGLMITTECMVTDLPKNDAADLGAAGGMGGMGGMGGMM
Assay info: GroEL/ES-mediated dMDH refolding assay
Format: biochemical
Threshold 20 µM: IC50 strictly smaller gives y, otherwise n.

**Q:** Threshold test, IC50 < 20 µM: O=C(N/N=C/c1ccc(O)c2ncccc12)c1ccccc1
**A:** n

**Q:** Is 20 µM strictly greater than the compound's reported IC50? compound: COc1ccc(C(=O)N/N=C/c2cccc3ccccc23)cc1
**A:** n

**Q:** hey, is IC50 for O=C(N/N=C/c1ccc([N+](=O)[O-])o1)c1cccc2ccccc12 lower than 20 µM or not?
**A:** n

**Q:** Say whether its IC50 is strictly beneath 20 µM. Entry: O=C(N/N=C/c1ccccc1)c1ccccc1 [Compound 38, N′-benzylidenebenzohydrazide]
**A:** n

**Q:** Below 20 µM on IC50? Entry O=C(N/N=C/c1ccc(O)cc1)c1ccccc1 [Compound 36, N′-(4-hydroxybenzylidene)benzohydrazide]
**A:** n

**Q:** Threshold test, IC50 < 20 µM: COc1ccc(C(=O)N/N=C/c2cccc3ncccc23)cc1
**A:** n

**Q:** Does O=Cc1ccc([N+](=O)[O-])o1 [Compound 41, reference compound] have IC50 strictly under 20 µM?
**A:** n

**Q:** Determine whether this compound shows IC50 lower than 20 µM (ties excluded): COc1ccc(C(=O)N/N=C/c2ccc(O)c3ncccc23)cc1
**A:** n

**Q:** Problem: For the compound O=C(N/N=C/c1ccc([N+](=O)[O-])o1)c1cccc(Oc2ccccc2)c1 , is IC50 under 20 µM?
**A:** n

**Q:** Please indicate whether the reported IC50 of O=C1CN(/N=C/c2ccc(O)c3ncccc23)C(=O)N1 is strictly below 20 µM.
**A:** n

**Q:** Field: below-cutoff. Rule: recorded IC50 strictly less than 20 µM. Subject: COc1ccc(C(=O)N/N=C/c2ccco2)cc1
**A:** n

**Q:** Record O=C(N/N=C/c1ccc(O)c2ncccc12)c1ccccc1Oc1ccccc1 : is its IC50 strictly below 20 µM?
**A:** y

**Q:** Problem: For the compound O=C(N/N=C/c1ccc(O)c2ncccc12)c1ccc(O)cc1 , is IC50 under 20 µM?
**A:** n

**Q:** Say whether its IC50 is strictly beneath 20 µM. Entry: O=C(N/N=C/c1ccc(O)c2ncccc12)c1ccc(NS(=O)(=O)c2ccc(Br)cc2)cc1
**A:** y

**Q:** Determine if CCN(CC)S(=O)(=O)c1cccc(C(=O)N/N=C/c2ccc(O)c3ncccc23)c1 shows IC50 strictly lower than 20 µM.
**A:** y

**Q:** Lab note: IC50 threshold 20 µM. Does this compound come in strictly under it? O=C(N/N=C/c1cccc2ncccc12)c1ccccc1
**A:** n

**Q:** Is it true that IC50 reported for O=C(N/N=C/c1ccc([N+](=O)[O-])o1)c1ccc(O)cc1 [Nifuroxazide, reference compound] is less than 20 µM?
**A:** n

**Q:** Is it true that IC50 reported for O=C(N/N=C/c1ccc(O)c2ncccc12)c1cccs1 is less than 20 µM?
**A:** n

**Q:** Could you please tell me whether IC50 recorded for O=C(N/N=C/c1ccc(O)c2ncccc12)c1ccncc1 is less than 20 µM?
**A:** n

**Q:** Field: below-cutoff. Rule: recorded IC50 strictly less than 20 µM. Subject: CCN(CC)S(=O)(=O)c1cccc(C(=O)N/N=C/c2ccc([N+](=O)[O-])o2)c1
**A:** n

**Q:** # check: IC50 < 20 µM for COc1ccc(C(=O)N/N=C/c2ccc(O)c3ccccc23)cc1
**A:** n

**Q:** Lab note: confirm whether the reported IC50 for this compound is below 20 µM, equality not counting. compound: COc1ccc(C(=O)N/N=C/c2ccc(O)cc2)cc1
**A:** n

**Q:** Given O=C(N/N=C/c1ccc([N+](=O)[O-])o1)c1ccc(NS(=O)(=O)c2ccc(Br)cc2)cc1 , is recorded IC50 strictly lower than 20 µM?
**A:** n

**Q:** Say whether its IC50 is strictly beneath 20 µM. Entry: CCOc1ccc(S(=O)(=O)Nc2ccc(C(=O)N/N=C/c3ccc([N+](=O)[O-])o3)cc2)cc1
**A:** n

**Q:** Is it true that IC50 reported for O=C(N/N=C/c1ccc([N+](=O)[O-])o1)c1ccc(NS(=O)(=O)c2cccs2)cc1 is less than 20 µM?
**A:** n

**Q:** Does the reported IC50 of COc1ccc(C(=O)NN)cc1 [Compound 42, reference compound] stay below 20 µM?
**A:** n

**Q:** IC50 strictly < 20 µM for this compound? O=C(N/N=C/c1cccc2ccccc12)c1ccccc1
**A:** n

**Q:** Threshold test, IC50 < 20 µM: CCOc1ccc(S(=O)(=O)Nc2ccc(C(=O)N/N=C/c3ccc(O)c4ncccc34)cc2)cc1
**A:** y

**Q:** In the record for O=C(N/N=C/c1ccc(O)c2ccccc12)c1ccccc1 , is IC50 less than 20 µM?
**A:** n

**Q:** IC50 strictly < 20 µM for this compound? O=C(N/N=C/c1ccc(O)c2ncccc12)c1ccc(Cl)s1
**A:** y

**Q:** Determine whether this compound shows IC50 lower than 20 µM (ties excluded): O=[N+]([O-])c1ccc(O)c2ncccc12 [Nitroxoline, reference compound]
**A:** n

**Q:** Is the reported IC50 for O=C(N/N=C/c1ccc(O)c2ncccc12)c1ccc(NS(=O)(=O)c2cccs2)cc1 strictly below 20 µM?
**A:** y

**Q:** Consider O=C(N/N=C/c1ccc(O)c2ncccc12)c1cccc(Oc2ccccc2)c1 . Does its IC50 lie strictly below 20 µM?
**A:** y

**Q:** Hello, is IC50 of the following compound strictly smaller than 20 µM? COc1ccc(C(=O)N/N=C/c2ccccc2)cc1 [Compound 37, N′-benzylidene-4-methoxybenzohydrazide]
**A:** n

**Q:** Is IC50 of O=C(N/N=C/c1ccc(O)c2ncccc12)c1cccc2ccccc12 strictly below 20 µM?
**A:** y

**Q:** Check if IC50 falls below 20 µM for CN(C)c1ccc(C(=O)N/N=C/c2ccc(O)c3ncccc23)cc1 .
**A:** n
